// EC50 lookup, one value per entry
# Tested on: TSE cells stably expressing GLS2
# Protocol description: 6-day cell proliferation assay, TSE stably expressing GLS2
# Type: cell-based, human
# Experimental conditions: TSE GLS2 clone 2, 6 days

Compound | Endpoint unit | Relation symbol | EC50
O=C(Cc1ccccc1)Nc1nnc(CCSCCc2nnc(NC(=O)Cc3ccccc3)s2)s1 [BPTES] | µM | > | 20
CN(C)c1ccc(C2Nc3ccc4ccccc4c3C3=C2C(=O)CC(C)(C)C3)cc1Br (centres unmarked) [Compound 968] | µM | = | 6

###

# Test system: TSE cells stably expressing GLS2
# Protocol description: 6-day cell proliferation assay, TSE stably expressing GLS2
# Format: cell-based, human
# Experimental conditions: TSE with ectopic expression of GLS2, 6 days
Measurement kind: EC50

Smiles text | Readout value
O=C(Cc1ccccc1)Nc1nnc(CCSCCc2nnc(NC(=O)Cc3ccccc3)s2)s1 | > 20 µM
